Recorded measurements of inhibition at 1 µM, one per entry
TARGET: EPHB2 (Homo sapiens)
Sequence (P29323 19-1055): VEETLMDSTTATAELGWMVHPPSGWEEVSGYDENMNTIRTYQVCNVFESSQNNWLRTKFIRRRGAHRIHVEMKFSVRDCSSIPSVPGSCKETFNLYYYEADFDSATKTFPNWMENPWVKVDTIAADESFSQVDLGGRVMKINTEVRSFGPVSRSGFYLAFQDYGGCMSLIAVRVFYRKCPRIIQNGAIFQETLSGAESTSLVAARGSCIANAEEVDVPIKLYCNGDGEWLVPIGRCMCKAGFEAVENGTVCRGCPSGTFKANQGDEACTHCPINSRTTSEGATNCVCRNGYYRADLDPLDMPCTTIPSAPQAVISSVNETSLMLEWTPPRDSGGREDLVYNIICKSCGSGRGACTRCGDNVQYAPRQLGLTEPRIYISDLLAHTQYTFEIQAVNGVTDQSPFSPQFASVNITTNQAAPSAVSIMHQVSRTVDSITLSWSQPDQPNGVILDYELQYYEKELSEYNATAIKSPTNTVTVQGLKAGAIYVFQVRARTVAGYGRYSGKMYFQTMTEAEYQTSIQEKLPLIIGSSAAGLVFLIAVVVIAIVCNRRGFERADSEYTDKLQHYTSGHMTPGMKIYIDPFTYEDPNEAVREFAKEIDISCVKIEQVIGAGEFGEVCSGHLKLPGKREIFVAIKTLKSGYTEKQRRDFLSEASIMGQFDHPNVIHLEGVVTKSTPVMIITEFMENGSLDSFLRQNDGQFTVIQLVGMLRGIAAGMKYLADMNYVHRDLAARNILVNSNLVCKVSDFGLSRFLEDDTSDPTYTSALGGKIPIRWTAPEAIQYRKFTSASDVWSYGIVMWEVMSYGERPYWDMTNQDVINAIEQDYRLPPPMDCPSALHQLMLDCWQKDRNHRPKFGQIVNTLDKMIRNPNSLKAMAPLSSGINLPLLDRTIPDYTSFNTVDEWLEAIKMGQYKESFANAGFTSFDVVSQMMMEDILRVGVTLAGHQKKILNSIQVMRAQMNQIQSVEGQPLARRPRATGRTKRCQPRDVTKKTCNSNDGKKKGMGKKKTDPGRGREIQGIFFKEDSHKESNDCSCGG
EXPERIMENT_DESCRIPTION: KINOMEscan competition binding
ASSAY_SETUP: read-out: %Inh EPHB2
MEASURE: inhibition at 1 µM (%)

compound="Cn1cc(-c2cnc(N)c3c(-c4ccc5c(c4)CCN5C(=O)Cc4ccccc4)csc23)cn1 [UNC10225012A]" value_measured=2
compound="COc1cccc(OC)c1C(=O)Nc1cccc(-c2nn3ccccc3c2-c2ccnc(Nc3cccc(F)c3)n2)c1 [UNC10225310A]" value_measured=0
compound="Cc1ccc(NC(=O)Nc2cccc(C(F)(F)F)c2)cc1 [UNC10225187A]" value_measured=3
compound="O=c1cc(N2CCOCC2)nc2n(Cc3cccc(Cl)c3Cl)c(C3CC3)nn12 [UNC10225469A]" value_measured=0
compound="CS(=O)(=O)Cc1ccc(Nc2nccc(-c3c(-c4cccc(NC(=O)C5CCCCC5)c4)nn4ncccc34)n2)cc1 [UNC10225159A]" value_measured=3
